- ASSAYED TARGET: human cannabinoid CB2 receptor (Homo sapiens, UniProt P34972)
- Sequence (P34972 whole entry): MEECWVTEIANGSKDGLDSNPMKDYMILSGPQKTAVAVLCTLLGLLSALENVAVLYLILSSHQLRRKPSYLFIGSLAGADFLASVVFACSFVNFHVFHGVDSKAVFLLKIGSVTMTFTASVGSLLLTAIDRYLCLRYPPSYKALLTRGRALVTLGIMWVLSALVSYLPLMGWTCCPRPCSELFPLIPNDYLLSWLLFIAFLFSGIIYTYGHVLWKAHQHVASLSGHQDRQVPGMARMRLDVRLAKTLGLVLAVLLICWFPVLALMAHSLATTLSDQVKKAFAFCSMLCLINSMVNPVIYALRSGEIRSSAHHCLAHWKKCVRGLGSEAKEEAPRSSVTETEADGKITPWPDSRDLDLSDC
- METHOD: Cannabinoid CB2 receptor agonist activity (yeast reporter assay, FDGlu fluorescence)
- Assay type: cell-based
- REPORTED CONDITIONS: read-out: efficacy value (Emax relative to HU210) at the cloned human cannabinoid CB2 receptor
Answer each item with its documented Emax.

Answered cases to consult:
N#Cc1cccc(Nc2ncc(C(=O)NCC3CCCC3)c(C(F)(F)F)n2)c1 : > 50%
O=C(NCC1CCCCC1)c1cnc(Nc2cccc(F)c2F)nc1C(F)(F)F : > 50%
Cc1ccc(Cl)cc1Nc1ncc(C(=O)NCC2CCCCC2)c(C(F)(F)F)n1 : > 50%
CN(Cc1ccccc1)C(=O)c1cnc(Nc2cccc(F)c2)nc1C(F)(F)F : > 50%
O=C(NCC1CCOCC1)c1cnc(Nc2ccc(F)c(Cl)c2)nc1C(F)(F)F : > 50%
O=C(NC1CCCC1)c1cnc(Nc2ccc(Cl)cc2Cl)nc1C(F)(F)F : > 50%
COc1cccc(Nc2ncc(C(=O)NCc3ccccc3)c(C(F)(F)F)n2)c1 : > 50%
Cc1ccc(Nc2ncc(C(=O)NCC3CCOCC3)c(C(F)(F)F)n2)cc1Cl : > 50%

API: the following record is the query input.
Need Emax of O=C(c1cnc(Nc2cccc(Cl)c2Cl)nc1C(F)(F)F)N1CCOCC1 , thanks. > 50%
